# experiment_summary: Pharmacokinetics after i.v. administration in rats
# Format: in vivo
# setup_conditions: rat, iv, male Wistar rats, 16 mg/kg B.W., serum, T=0 to 240 min
# Method: A formulation of compound (20R)-I(e) dissolved in saline (0.9% NaCl): propylene glycol:ethanol (5:3:2; v/v/v) was prepared at a concentration of 20 mg/ml. Nine male Wistar rats (150-200 g) were fasted 8 hours prior to the initiation of the study. […] The concentration of compound (20R)-I(e) in the serum samples was quantified using a High Performance Liquid Chromatographic method with Mass Spectroscopy detection (LC MS/MS). […]
experimental_readout: AUC
A bare number is not enough; add the unit after it.

The measured AUC associated with C=C1/C(=C\C=C2/CCC[C@]3(C)C([C@H](C)C/C=C/C(=NOC)C(C)(C)C)=CC[C@@H]23)C[C@@H](O)C[C@@H]1O [(20R)-I(e)] reads 39.6 ng·h/mL
